# Method description: growth inhibition of ugtP-null S. aureus, primary screen, RN4220 ugtP deletion, OD600 (AID 1259309);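 note: plate controls were untreated wells for no effect and antibiotic for full effect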
# Condition info: 16 h, stronger effect = higher value
Hit rate of the full screen: of about 330,000 compounds, about 1,800 (0.55%) were called active. Many of the other results were omitted from the sample, so actives are more common in it than they were.

Molecule: CC1=NOC(=O)C1=Cc1ccc(-c2ccc(Cl)c(C(=O)O)c2)o1
growth inhibition [%]: 2.05
//
Molecule: NCCCCC(C(=O)N1CCNCC1)n1cc(CCC(=O)O)nn1 (stereo unspecified)
growth inhibition [%]: 3.28
//
Molecule: COC(=O)c1ccc(SCc2ccccc2)nc1
growth inhibition [%]: 3.84
//
Molecule: Cc1cc([N+](=O)[O-])cc(C=NNC(=O)C2COc3ccccc3O2)c1O (stereo unspecified)
growth inhibition [%]: 9.3
//
Molecule: Cc1ccc(C(=O)NCCN2C3=NCC(Cc4ccc(O)cc4)N3CC2Cc2ccc(O)cc2)cc1Br (stereo unspecified)
growth inhibition [%]: -5.82
//
Molecule: COc1ccc(C=NNC(=O)c2ccccc2OC)cc1COc1ccccc1[N+](=O)[O-]
growth inhibition [%]: 4.98
//
Molecule: COC(=O)c1ccc(-c2c(-c3ccccc3)ncc3cc(OC)c(OC)cc23)cc1
growth inhibition [%]: 97.6
//
Molecule: CCC(C)Sc1ccc(C2N[C@@](C)(C(=O)OC)C3C(=O)N(C)C(=O)C23)cc1 (stereo partly specified)
growth inhibition [%]: 2.56
//
Molecule: O=C(CON=Cc1c(Cl)cccc1Cl)NNC(=O)c1cccc(Cl)c1
growth inhibition [%]: 2.89
//
Molecule: CC1CN(C(C)CO)C(=O)c2cc(NS(=O)(=O)c3ccccc3)ccc2OC1CN(C)C(=O)Nc1ccc2c(c1)OCO2 (stereo unspecified)
growth inhibition [%]: 1.83
//
Molecule: O=C(O)C(c1ccccc1)N1C(=O)/C(=C\c2ccc(-c3cccc(Cl)c3)o2)SC1=S (stereo unspecified)
growth inhibition [%]: 95.7
//
Molecule: CC(=NOC(=O)c1ccc(C)cc1)C(=O)c1ccc(Br)cc1
growth inhibition [%]: 0.731
//
Molecule: Cn1cccc1CC(=O)NN=Cc1ccco1
growth inhibition [%]: -0.545
//
Molecule: CC(Cc1ccccc1)=NNC(=O)CNC(=O)Cc1ccccc1
growth inhibition [%]: 2.62
//
Molecule: COc1ccc(C(=O)NN=Cc2ccc(OC(=O)c3cccc4ccccc34)c([N+](=O)[O-])c2)cc1
growth inhibition [%]: 96.8
//
Molecule: CCOc1ccc(C=NNc2cc(N3CCOCC3)nc(C)n2)c(O)c1
growth inhibition [%]: 1.85
//
Molecule: COc1ccc(CNC(=O)Cc2ccc(-c3ccccc3)cc2)cc1OC
growth inhibition [%]: -1.11
//
Molecule: O=C(COc1ccccc1)NCC(=O)NN=C/C=C/c1ccccc1
growth inhibition [%]: 2.76
//
Molecule: O=S(=O)(C=Cc1ccccc1)N1CCN(c2nc(-c3cccnc3)nc3ccccc23)CC1
growth inhibition [%]: -1.02
//
Molecule: CC(=NN=C1SC(CC(=O)O)C(=O)N1c1ccccc1)c1ccc(C)cc1 (stereo unspecified)
growth inhibition [%]: 7.85
//
Molecule: CC1(C)SC2C(NC(=O)COc3ccccc3)C(=O)N2C1C(=O)O (stereo unspecified)
growth inhibition [%]: 101
